- Tested on: MDA-MB-468 breast
- ASSAY COMMENT: NCI tumour cell line growth inhibition, 48 h
PROPERTY NAME: TGI (µM)
Field format: number, assumed µM, no unit text.

{"CHEMICAL SMILES": "CCOC(=O)c1ccc2c(c1)[n+](=O)c(C(=O)c1ccc3ccccc3c1)c(C(F)(F)F)n2[O-]", "TGI [µM]": 1.51}
{"CHEMICAL SMILES": "CCCCCCCCCCCC1=NC(C)(C)CN1CCO", "TGI [µM]": 12.8}

Shifting focus to the molecule that follows.
[in] Annotate the molecule "C=C1C(=O)O[C@H]2[C@H]1CC/C(C=Nc1ccc(C(F)(F)F)cc1N)=C\CC[C@@]1(C)O[C@@H]21" with its measured TGI.
[out] 12.6

###

- Tested on: MDA-MB-468 breast
- ASSAY COMMENT: NCI tumour cell line growth inhibition, 48 h; in the data active means GI50 below about 0.43 µM; inactive means the rest
Form entry, call: pick from y = active, n = inactive

Would you please look over these solved cases?
{"CHEMICAL SMILES": "C=C1C(=O)O[C@H]2[C@H]1CC/C(C=Nc1ccc(C(F)(F)F)cc1N)=C\\CC[C@@]1(C)O[C@@H]21", "CATEGORY LABEL": "n"}
{"CHEMICAL SMILES": "Cc1ccc(Cl)cc1Nc1nc(C(F)(F)F)ccc1C(=O)N/N=C/c1c(Cl)cccc1Cl", "CATEGORY LABEL": "n"}
{"CHEMICAL SMILES": "COc1ccc(C(=O)Nc2sc3c(c2C#N)CCC(=O)C3)cc1C(F)(F)F", "CATEGORY LABEL": "n"}

[in] Tell me the assay call for "C(=N/Nc1ncnc2nc[nH]c12)/c1ccccn1" please.
[out] y

[in] Tell me the assay call for "COc1ccc(-n2c(SCC(=O)Nc3ccc(-c4nc5ccccc5[nH]4)cc3)nc3ccccc3c2=O)cc1" please.
[out] n

[in] Tell me the assay call for "O=C1[C@H]2Cc3c([nH]c4ccccc34)[C@@H](c3ccc(Br)cc3)N2C(=O)CN1C1CCN(CC2CCCCC2)CC1" please.
[out] n

###

- Test system: MDA-MB-468 breast
- ASSAY COMMENT: NCI tumour cell line growth inhibition, 48 h
// values below are reported TGI
Field format: number, assumed µM, no unit text.

{"COMPOUND": "C#CC[C@@H]1C[C@]2(C)[C@H]3CC[C@@H]4[C@H]5[C@H](C(=C)C)CC[C@]5(C(=O)O)CC[C@@]4(C)[C@]3(C)CC[C@H]2C(C)(C)[C@H]1O", "UNIT DESCRIPTOR": "µM", "TGI": 5.29}
{"COMPOUND": "CCc1ccc(CCC(=O)Nc2ncc(Cc3cc(Cl)ccc3Cl)s2)o1", "UNIT DESCRIPTOR": "µM", "TGI": 5.97}
{"COMPOUND": "Nc1ncnc2c1c(-c1cccc(OCc3ccccc3)c1)cn2C1CC(CN2CCCC2)C1 (stereo not given)", "UNIT DESCRIPTOR": "µM", "TGI": 3.14}
{"COMPOUND": "COc1ccc(-n2c(SCC(=O)Nc3ccc(-c4nc5ccccc5[nH]4)cc3)nc3ccccc3c2=O)cc1", "UNIT DESCRIPTOR": "µM", "TGI": 4.63}

[in] Annotate the compound "O=C(/C=C/c1ccccn1)c1ccccc1O" with its measured TGI.
[out] 3.1
